target: E. coli CsgA (Escherichia coli, UniProt P28307); construct: made in house; host or cells: E. coli NEB 3016 slyD::kan, pET11d; test: In vitro ThioflavinT assay of CsgA aggregation (CsgA ThT Assay); type: biochemical; conditions: read-out: CsgA ThT Assay (2 μM CsgA) % Control Bmax 25 μM, mean Bmax as percentage of DMSO control; CsgA 2 μM, white plates; compound 25 μM
Sequence (P28307 23-151): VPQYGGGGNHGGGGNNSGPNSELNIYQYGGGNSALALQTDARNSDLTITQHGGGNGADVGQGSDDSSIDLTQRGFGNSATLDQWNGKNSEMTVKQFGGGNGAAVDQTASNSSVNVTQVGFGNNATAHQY
Give remaining activity at 25 µM for every item shown.
Dear colleague, please return just the value in %, with no unit written.

**Query** Suppose we examine the molecule O=C(O)C1CN(CC2CCCCC2)c2c(-c3cccc(C(F)(F)F)c3)c(Cc3cccc4ccccc34)c(Cl)c(=O)n21 (stereo not shown) ; what remaining activity at 25 µM value has been reported?
**Result** 65

**Query** Suppose we examine the molecule CCCN1CC(C(=O)O)n2c(c(-c3cccc(C(F)(F)F)c3)c(Cc3cccc4ccccc34)c(NC(C)C)c2=O)S1(=O)=O (stereo not shown) ; what remaining activity at 25 µM value has been reported?
**Result** 98

**Query** Suppose we examine the molecule CC(C)CNC(=O)c1c(Cc2cccc3ccccc23)c(-c2cccc(C(F)(F)F)c2)c2n(c1=O)C(C(=O)O)CN(C)S2(=O)=O (stereo not shown) ; what remaining activity at 25 µM value has been reported?
**Result** 64

**Query** Suppose we examine the molecule CCNC(=O)c1c(Cc2cccc3ccccc23)c(-c2cccc(C(F)(F)F)c2)c2n(c1=O)C(C(=O)O)CN(C)S2(=O)=O (stereo not shown) ; what remaining activity at 25 µM value has been reported?
**Result** 80

**Query** Suppose we examine the molecule CCCCN1CC(C(=O)O)n2c1c(-c1cccc(C(F)(F)F)c1)c(Cc1cccc3ccccc13)c(Cl)c2=O (stereo not shown) ; what remaining activity at 25 µM value has been reported?
**Result** 33

**Query** Suppose we examine the molecule O=C(O)C1CN(CC2CCCC2)c2c(-c3cccc(C(F)(F)F)c3)c(Cc3cccc4ccccc34)c(Cl)c(=O)n21 (stereo not shown) ; what remaining activity at 25 µM value has been reported?
**Result** 65

**Query** Suppose we examine the molecule O=C(O)C1CN(C2CCCC2)S(=O)(=O)c2c(-c3cccc(C(F)(F)F)c3)c(Cc3cccc4ccccc34)c(NC3CCCC3)c(=O)n21 (stereo not shown) ; what remaining activity at 25 µM value has been reported?
**Result** 78

**Query** Suppose we examine the molecule CCCN1CC(C(=O)O)n2c(c(-c3cccc(C(F)(F)F)c3)c(Cc3cccc4ccccc34)c(NC(=O)CC)c2=O)S1(=O)=O (stereo not shown) ; what remaining activity at 25 µM value has been reported?
**Result** 91

**Query** Suppose we examine the molecule O=C(O)C1CN(CCCCCCCN2CC(C(=O)O)n3c2c(-c2cccc(C(F)(F)F)c2)c(Cc2cccc4ccccc24)c(Cl)c3=O)c2c(-c3cccc(C(F)(F)F)c3)c(Cc3cccc4ccccc34)c(Cl)c(=O)n21 (stereo not shown) ; what remaining activity at 25 µM value has been reported?
**Result** 33

**Query** Suppose we examine the molecule O=C(O)C1CN(Cc2ccccc2)c2c(-c3cccc(C(F)(F)F)c3)c(Cc3cccc4ccccc34)c(Cl)c(=O)n21 (stereo not shown) ; what remaining activity at 25 µM value has been reported?
**Result** 57

**Query** Suppose we examine the molecule O=C(O)C1CN(Cc2ccccc2)c2c(-c3cccc(C(F)(F)F)c3)c(Cc3cccc4ccccc34)c(F)c(=O)n21 (stereo not shown) ; what remaining activity at 25 µM value has been reported?
**Result** 100

**Query** Suppose we examine the molecule O=C(O)C1CN(CCc2ccccc2)c2c(-c3cccc(C(F)(F)F)c3)c(Cc3cccc4ccccc34)c(Cl)c(=O)n21 (stereo not shown) ; what remaining activity at 25 µM value has been reported?
**Result** 57

**Query** Suppose we examine the molecule CCCN1CC(C(=O)O)n2c(c(-c3cccc(C(F)(F)F)c3)c(Cc3cccc4ccccc34)c(OCC)c2=O)S1(=O)=O (stereo not shown) ; what remaining activity at 25 µM value has been reported?
**Result** 87
